test: folding enthalpy; higher = less favourable; fluorescence melt of hairpins on a sequencing array, two-state fit; conditions: sodium 0.088 M
assay.metric: folding enthalpy (kcal/mol)
Write the value in kcal/mol as a bare number.

>>> test_value("GTGCGACGAAAGTCCCAC (((.(((....))).)))")
-30.8
>>> test_value("GCATACGAAAGTACATGC ((((((....)))..)))")
-26.9
>>> test_value("GCCTGCGAAAGCAGAGGC ((((((....)))..)))")
-17.6
>>> test_value("GCTCACGGAAACACGAGC ((((..(....)..))))")
-25.8
>>> test_value("GGCCGTGGAAACATGGCC ((((.((....)).))))")
-44.6
>>> test_value("GTGCACGGAAACGTGTGC (..((((....))))..)")
-27.7
>>> test_value("GATCTGTCATCAGATC ((((((....))))))")
-38.1
>>> test_value("GCTAACTCGAAAGAGAGC (((..(((....))))))")
-16.5
>>> test_value("GGTTCTCGAAAGAGGACC (((.(((....))).)))")
-42.8
>>> test_value("GTTCTAGGAAACTAGAGC (.(((((....))))).)")
-24.7

(Q) Tell me folding enthalpy reported for GGCTCCGCGAAAGCGGCC (((..(((....))))))
(A) -8.55

(Q) Provide measured folding enthalpy value, entry: GTGAACGGAAACGCTCAC ((((.((....)).))))
(A) -31.5

(Q) Note down folding enthalpy recorded for GACATAGGAAACTATGTC (((((((....)))))))
(A) -35.6

(Q) For the sequence GGCAAGGGAAACTTTGCC (((((.(....).))))) , report folding enthalpy.
(A) -37.7

(Q) Name the recorded folding enthalpy of the sequence listed here: GGGAGATCGAAAGATCCC (((..(((....))))))
(A) -14.5

(Q) Recall and state the measured folding enthalpy for GGCCTTGGAAACGAGGCC (((((.(....).))))) .
(A) -50.7

(Q) Please give the documented folding enthalpy of GGTGTTGGAAACGATACC (((.(.(....).).)))
(A) -14.2

(Q) Name the recorded folding enthalpy of the sequence listed here: GATCGGCGCCCGATC ((((((...))))))
(A) -36.4

(Q) Annotate the sequence GGTGTCGGAAACGATACC (((.(((....))).))) with its measured folding enthalpy.
(A) -52

(Q) Fill in folding enthalpy for record CGCCCACGGAAACGTGCG (((..(((....))))))
(A) -12.3

(Q) Find the measured folding enthalpy of GCGCCGCGAAAGCCGAGC ((.(.((....)).).)) and report it.
(A) -18.9

(Q) Name the recorded folding enthalpy of the item GATCCCGCTCGGGATC ((((((....)))))) in your answer.
(A) -34

(Q) Supply reported folding enthalpy belonging to this sequence: GCGAGCATTCGC ((((....))))
(A) -27.1

(Q) Find the measured folding enthalpy of GCTTCGCGAAAGCTGAGC (((..((....))..))) and report it.
(A) -14.5

(Q) Report folding enthalpy for GGCACATCGAAAGATGCC (((..(((....))))))
(A) -14.7

(Q) Return folding enthalpy for the following sequence: GAAAGCACGAAAGTGTTC (((..(((....))))))
(A) -9.28

(Q) Note down folding enthalpy recorded for CGAACGGAAACGTTTTCG ((((((....)))..)))
(A) -16.3

(Q) Identify folding enthalpy associated with the sequence GATCTAAGGGTAGATC ((((((....))))))
(A) -25.1

(Q) Identify measured folding enthalpy associated with GATCTACGATAGATC ((((((...))))))
(A) -19.9

---

assay: melting temperature; fluorescence melt of hairpins on a sequencing array, two-state fit, raised by 9.35 °C to match UV melts; conditions: sodium 0.088 M
Listed here: items and their measured Tm.
Note: unit °C is implicit; provide only the numeric part.

>>> test_value("GATCCACAGTGGATC ((((((...))))))")
49.7
>>> test_value("GCGATAGGTCGC ((((....))))")
51.4
>>> test_value("GCGATATCTCGC ((((....))))")
48.5
>>> test_value("GAGCACCGAAAGGTACTC (((.(((....))).)))")
50

Okay, next one:
(Q) Give the measured Tm for GTATGCCGAAAGGCTTAC (((.(((....))).)))
(A) 50.6

---

assay: melting temperature; fluorescence melt of hairpins on a sequencing array, two-state fit, raised by 9.35 °C to match UV melts; settings: sodium 0.088 M
assay.metric: Tm (°C)
Respond with the bare value in °C.

Past entries and their recorded results:
>>> test_value("GAACGCGGAAACGCATTC (((.(((....))).)))")
40.1
>>> test_value("GATCGATGTCTCGATC ((((((....))))))")
51.5
>>> test_value("GATCATCCAGATGATC ((((((....))))))")
50.3
>>> test_value("GAATCGAAAGATTC (((((....)))))")
50.9
>>> test_value("CGTACCGGAAACGGGACG (((.(((....))).)))")
64.8
>>> test_value("GTACGCGAAAGCGGTTAC ((((((....)))..)))")
32.7

(Q) Report Tm, nothing else, for this sequence: GTCAAGCGAAAGCTAGAC (((.(((....))).)))
(A) 52.8

(Q) Tell me its Tm given GGGTACGAAAGTAAGCCC ((((((....)))..))) as the entry.
(A) 40.7

(Q) State its Tm for this sequence: GCTTACCCGAAAGGGAGC (((..(((....))))))
(A) 39

(Q) Give recorded Tm. GAACTAGAAATAGTTC ((((((....))))))
(A) 42

(Q) Fill in Tm for record GCTGTTCGAAAGAAGAGC (((.(((....))).)))
(A) 50.6

(Q) Give a short answer stating reported Tm for GCTTTCGAAAGAAAAAGC ((((((....)))..))) .
(A) 36

---

assay: melting temperature; fluorescence melt of hairpins on a sequencing array, two-state fit, raised by 9.35 °C to match UV melts; conditions: sodium 0.088 M
Attribute: Tm

These recorded examples may help you get a feel for the data.
>>> test_value("GATCTCCAAAGAGATC ((((((....))))))")
"52.5 °C"
>>> test_value("GCCCTCGAAAGAGGAGGC ((((((....)))..)))")
"51.9 °C"
>>> test_value("GCGGGTCCCCGC ((((....))))")
"66.8 °C"
>>> test_value("GTCGATGGAAACATTGAC (((.(((....))).)))")
"48.3 °C"
>>> test_value("GTACAACGAAAGTTTAC (((.(((....))))))")
"27.8 °C"

(Q) Tell me Tm reported for GCCCGGCGAAAGCCTTGC ((..(((....)))..))
(A) 35.7 °C

(Q) Please give measured Tm of the following entry: GACGCAGGAAACTGCATC ((.((((....)))).))
(A) 36.2 °C

---

experiment: folding enthalpy; higher = less favourable; fluorescence melt of hairpins on a sequencing array, two-state fit; settings: sodium 0.088 M
assay.metric: folding enthalpy (kcal/mol)
Your answer is read as kcal/mol, so omit the unit and give the number.

Solved cases below.
>>> test_value("GTCGGGCGAAAGCCGGAC (((.(((....))).)))")
-27.7
>>> test_value("GATCCGCACGCGGATC ((((((....))))))")
-39.1
>>> test_value("GATCAAGCGTTGATC ((((((...))))))")
-29.6
>>> test_value("GATCGGATAACCGATC ((((((....))))))")
-35.1
>>> test_value("GATCGTCCAACGATC ((((((...))))))")
-39.4

(Q) Please report the measured folding enthalpy for GGTATGGGAAACCATATC (.(((((....))))).)
(A) -24.1

(Q) Item GATCCCGGAAACAGGATC (((((.(....).))))) : provide folding enthalpy
(A) -28.8

(Q) For the sequence GATCTGTCGTCAGATC ((((((....)))))) , report folding enthalpy.
(A) -37.6

---

experiment: folding enthalpy; higher = less favourable; fluorescence melt of hairpins on a sequencing array, two-state fit; conditions: sodium 0.088 M
assay.metric: folding enthalpy (kcal/mol)
Enter your answer as a number in kcal/mol; do not include the unit.

// solved cases for folding enthalpy follow
>>> test_value("GGCCATGGAAACATGACC ((.((((....)))).))")
-29.2
>>> test_value("GCCTATCGAAAGATGGC (((.(((....))))))")
-30.9
>>> test_value("GGAGTGCGAAAGCAGTCC (((.(((....))).)))")
-30.1

Here's the next entry for you.
(Q) Identify measured folding enthalpy corresponding to GCGTGGTTACGC ((((....))))
(A) -21.7
